- test_description: Absorbance and fluorescence spectroscopy of coumarin amides (λmax, molar extinction coefficient, quantum yield)
- Format: physicochemical
- measurement_setup: aqueous PBS, 1% DMSO, pH 7.4
endpoint_name: Em. λmax (nm)

>>> df
                                   molecule  endpoint_name  unit_spec  value_reported
0  CCCCCCNC(=O)c1cc2cc(F)c(O)c(F)c2oc1=O [Compound 30, reference compound]       Em. λmax         nm             447
1        CCCCCCNC(=O)c1cc2cc(F)c(O)cc2oc1=O       Em. λmax         nm             451
2  CCCCCCNC(=O)c1cc2ccc(O)cc2oc1=O [Compound 29, reference compound]       Em. λmax         nm             447
3        CCCCCCNC(=O)c1cc2ccc(O)c(F)c2oc1=O       Em. λmax         nm             457
4        CCCCCCNC(=O)c1cc2c(F)cc(O)cc2oc1=O       Em. λmax         nm             449

###

- test_description: Absorbance and fluorescence spectroscopy of coumarin amides (λmax, molar extinction coefficient, quantum yield)
- Type: physicochemical
- measurement_setup: PBS, 1% DMSO, pH 7.4; relative to 30
endpoint_name: Φ (quantum yield)

>>> df
                             compound      endpoint_name  value_reported
0  CCCCCCNC(=O)c1cc2cc(F)c(O)cc2oc1=O  Φ (quantum yield)            0.84

I: CCCCCCNC(=O)c1cc2ccc(O)c(F)c2oc1=O
II: CCCCCCNC(=O)c1cc2ccc(O)cc2oc1=O [Compound 29, reference compound]
Query: Field: lower recorded Φ (quantum yield) (choose I or II ) API: response body contains the label of the selected item.
Reply: II
(II: 0.35, I: 0.69)

All values here come from patent US20260258021A1.
